The entries below are paired with their reported Population Membrane Permeable-Phenotype (%).
Tested on: HEK-293T
Experiment: Multiplex assay against HEK293T
Type: toxicity, cell-based
Conditions: human, 24 h, 10 µM, compound concentration 10 uM, replicate 2
# number only, unit % dropped from output

// Cc1ccc(C(=O)Nc2cccc(C(F)(F)F)c2)cc1Nc1nc(-c2cccnc2)nc2c1cnn2C : Population Membrane Permeable-Phenotype (%) value = 4

* * *

Tested on: HEK-293T
Assay: Multiplex assay against HEK293T
Type: toxicity, cell-based
Details: human, 48 h, 1 µM, compound concentration 1 uM, replicate 1
quantity kind: Population Healthy Nuclei (%)
Lab book: enter the figure in %, no units written.

Example results:
molecule	unit label	reported value
O=C1NC(=O)C(c2cnc3ccccn23)=C1c1cn2c3c(cc(F)cc13)CN(C(=O)N1CCCCC1)CC2	%	39
Cc1cc(C)c(S(=O)(=O)N(Cc2ccc(-c3cccc(S(C)(=O)=O)c3)cc2)Cc2ccc(C(F)(F)F)o2)c(C)c1	%	61
CN(C)C(=O)C(CCN1CCC(O)(c2ccc(Cl)cc2)CC1)(c1ccccc1)c1ccccc1.Cl [LOPERAMIDE HYDROCHLORIDE]	%	45
CCCn1c(=O)c2[nH]c(-c3cnn(Cc4cccc(C(F)(F)F)c4)c3)nc2n(CC)c1=O	%	6
Cl.O=c1c2cccn2c2ccccc2n1CCCN1CCC(c2ccc(Cl)cc2)CC1	%	77

Record summary for CCc1cccc(CC)c1NC(=O)c1nn(C)c2c1CCc1cnc(Nc3ccc(C(=O)NC4CCN(C)CC4)cc3OC(F)(F)F)nc1-2 : reported Population Healthy Nuclei (%) = 59

Measured Population Healthy Nuclei (%), S=C(NCCCc1c[nH]cn1)NCCCN(Cc1ccc(Cl)c(Cl)c1)c1ccc(Br)cn1 : 4

response.value for CN1C2CCC1CC(OC(c1ccc(F)cc1)c1ccc(F)cc1)C2.Cl (stereo not drawn) (field: Population Healthy Nuclei (%)) = 21

Data origin, for the record: ChEMBL document CHEMBL4689842
